target: CYP2D6 (Homo sapiens); experiment: Vivid CYP2D6 blue fluorescent assay; conditions: human, recombinant (cDNA-expressed) CYP2D6 BACULOSOMES, probe Vivid blue substrate 10 µM
Sequence (P10635 whole entry): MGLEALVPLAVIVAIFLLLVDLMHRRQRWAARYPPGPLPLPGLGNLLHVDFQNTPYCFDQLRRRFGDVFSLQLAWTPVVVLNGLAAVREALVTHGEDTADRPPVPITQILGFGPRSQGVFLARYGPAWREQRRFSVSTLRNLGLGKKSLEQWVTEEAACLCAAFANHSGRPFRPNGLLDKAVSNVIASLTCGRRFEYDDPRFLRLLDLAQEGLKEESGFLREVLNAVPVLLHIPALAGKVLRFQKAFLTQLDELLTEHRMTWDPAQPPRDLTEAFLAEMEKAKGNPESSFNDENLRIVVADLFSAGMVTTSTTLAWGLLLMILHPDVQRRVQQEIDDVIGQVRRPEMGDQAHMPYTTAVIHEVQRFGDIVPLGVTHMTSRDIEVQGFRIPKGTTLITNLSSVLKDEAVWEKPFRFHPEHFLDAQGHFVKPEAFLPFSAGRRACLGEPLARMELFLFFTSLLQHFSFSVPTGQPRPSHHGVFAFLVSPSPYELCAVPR
measurement_kind: inhibition at 30 min, 50 µM (%)
Write the answer as a number in %, unit excluded.

A selection of reference data follows.
compound	inhibition at 30 min, 50 µM, %
CC(C)=CCC[C@](C)(O[C@@H]1O[C@H](CO[C@@H]2O[C@H](CO)[C@@H](O)[C@H](O)[C@H]2O)[C@@H](O)[C@H](O)[C@H]1O)[C@H]1CC[C@]2(C)[C@@H]1[C@H](O)C[C@@H]1[C@@]3(C)CC[C@H](O[C@@H]4O[C@H](CO)[C@@H](O)[C@H](O)[C@H]4O[C@@H]4O[C@H](CO)[C@@H](O)[C@H](O)[C@H]4O)C(C)(C)[C@@H]3CC[C@]12C	29.1
CC(C)=CCC[C@](C)(O[C@@H]1O[C@H](CO)[C@@H](O)[C@H](O)[C@H]1O)[C@H]1CC[C@]2(C)[C@@H]1[C@H](O)C[C@@H]1[C@@]3(C)CC[C@H](O[C@@H]4O[C@H](CO)[C@@H](O)[C@H](O)[C@H]4O[C@@H]4O[C@H](CO)[C@@H](O)[C@H](O)[C@H]4O)C(C)(C)[C@@H]3CC[C@]12C	18.1
CC(C)(O)CCC[C@@](C)(O)[C@H]1CC[C@]2(C)[C@@H]1[C@H](O)C[C@@H]1[C@@]3(C)CC[C@H](O)C(C)(C)[C@@H]3CC[C@]12C [20(R)-25-OH-PPD, 20(R)-dammarane-3β, 12β, 20, 25-tetrol]	31.8
CC(C)=CCC[C@](C)(O[C@@H]1O[C@H](CO)[C@@H](O)[C@H](O)[C@H]1O)[C@H]1CC[C@]2(C)[C@@H]1[C@H](O)C[C@@H]1[C@@]3(C)CC[C@H](O)C(C)(C)[C@@H]3[C@@H](O[C@@H]3O[C@H](CO)[C@@H](O)[C@H](O)[C@H]3O[C@@H]3O[C@@H](C)[C@H](O)[C@@H](O)[C@H]3O)C[C@]12C	44.2
CC(C)(O)CCC[C@@](C)(O)[C@H]1CC[C@]2(C)[C@@H]1[C@H](O)C[C@@H]1[C@@]3(C)CC[C@H](O)C(C)(C)[C@@H]3[C@@H](O)C[C@]12C [20(R)-25-OH-PPT]	10
CC(C)=CCC[C@](C)(O[C@@H]1O[C@H](CO)[C@@H](O)[C@H](O)[C@H]1O)[C@H]1CC[C@]2(C)[C@@H]1[C@H](O)C[C@@H]1[C@@]3(C)CC[C@H](O)C(C)(C)[C@@H]3CC[C@]12C [C-K, ginsenoside Compound K]	49.4

// moving on: another record for inhibition at 30 min, 50 µM
Requested read-out: inhibition at 30 min, 50 µM. Entry: `CC(C)=CCC[C@](C)(O[C@@H]1O[C@H](CO[C@@H]2OC[C@@H](O)[C@H](O)[C@H]2O)[C@@H](O)[C@H](O)[C@H]1O)[C@H]1CC[C@]2(C)[C@@H]1[C@H](O)C[C@@H]1[C@@]3(C)CC[C@H](O[C@@H]4O[C@H](CO)[C@@H](O)[C@H](O)[C@H]4O[C@@H]4O[C@H](CO)[C@@H](O)[C@H](O)[C@H]4O)C(C)(C)[C@@H]3CC[C@]12C` 49.4
